- Test system: L132 (Lung)
- experimentSummary: MTT cytotoxicity assay, 48 hours (Example 14)
- Format: cell-based
- details: L132, 100 nM
Non-standard residues stand in square brackets, D forms with d. Residues, ends and D or L forms follow the SMILES beside them. *: point of attachment. Octanoyl = CCCCCCCC(=O)*; Ac5c = NC1(C(=O)O)CCCC1; Deg = CCC(N)(CC)C(=O)O; Aib = CC(C)(N)C(=O)O; Butyryl = CCCC(=O)*

{"compound": "CCCCCCCC(=O)N[C@H](Cc1ccccc1)C(=O)N[C@@H](CCC(N)=O)C(=O)N[C@@H](Cc1c[nH]c2ccccc12)C(=O)N[C@@H](C)C(=O)N[C@H](C(=O)NC(C)(C)C(=O)N[C@@H](Cc1c[nH]cn1)C(=O)N[C@@H](CC(C)C)C(N)=O)C(C)C [SEQ ID: 12] (Octanoyl-[dF]QWAV[Aib]HL-NH2)", "Percentage cytotoxicity / %": 22.0}
{"compound": "CCC(CC)(NC(=O)[C@H](Cc1c[nH]c2ccccc12)NC(=O)[C@H](CCC(N)=O)NC(=O)[C@H](N)Cc1ccccc1)C(=O)N[C@H](C(=O)NCC(=O)N[C@@H](Cc1c[nH]cn1)C(=O)N[C@@H](CC(C)C)C(N)=O)C(C)C [SEQ ID: 9, D-Phe-Gln-Trp-Deg-Val-Gly-His-Leu-NH2] (H-[dF]QW[Deg]VGHL-NH2; N-terminus assumed)", "Percentage cytotoxicity / %": 25.9}
{"compound": "CC(C)C[C@H](NC(=O)[C@H](Cc1c[nH]cn1)NC(=O)C1(NC(=O)[C@@H](NC(=O)[C@H](C)NC(=O)[C@H](Cc2c[nH]c3ccccc23)NC(=O)[C@H](CCC(N)=O)NC(=O)[C@H](N)Cc2ccccc2)C(C)C)CCCC1)C(N)=O [SEQ ID: 10, D-Phe-Gln-Trp-Ala-Val-Ac5c-His-Leu-NH2] (H-[dF]QWAV[Ac5c]HL-NH2; N-terminus assumed)", "Percentage cytotoxicity / %": 27.8}
{"compound": "CCCC(=O)N[C@H](Cc1ccccc1)C(=O)N[C@@H](CCC(N)=O)C(=O)N[C@@H](Cc1c[nH]c2ccccc12)C(=O)N[C@@H](C)C(=O)N[C@H](C(=O)NC(C)(C)C(=O)N[C@@H](Cc1c[nH]cn1)C(=O)N[C@@H](CC(C)C)C(N)=O)C(C)C [SEQ ID: 11] (Butyryl-[dF]QWAV[Aib]HL-NH2)", "Percentage cytotoxicity / %": 20.4}

---

- System: PTC (colon)
- experimentSummary: MTT cytotoxicity assay, 48 hours (Example 14)
- Assay type: cell-based, human
- details: 10 pM
Non-standard residues stand in square brackets, D forms with d. Residues, ends and D or L forms follow the SMILES beside them. *: point of attachment. Octanoyl = CCCCCCCC(=O)*; Ac5c = NC1(C(=O)O)CCCC1; Deg = CCC(N)(CC)C(=O)O; Aib = CC(C)(N)C(=O)O; Butyryl = CCCC(=O)*

{"compound": "CC(C)C[C@H](NC(=O)[C@H](Cc1c[nH]cn1)NC(=O)C1(NC(=O)[C@@H](NC(=O)[C@H](C)NC(=O)[C@H](Cc2c[nH]c3ccccc23)NC(=O)[C@H](CCC(N)=O)NC(=O)[C@H](N)Cc2ccccc2)C(C)C)CCCC1)C(N)=O [SEQ ID: 10, D-Phe-Gln-Trp-Ala-Val-Ac5c-His-Leu-NH2] (H-[dF]QWAV[Ac5c]HL-NH2; N-terminus assumed)", "unitDescriptor": "%", "Percentage cytotoxicity": 22.2}
{"compound": "CCC(CC)(NC(=O)[C@H](Cc1c[nH]c2ccccc12)NC(=O)[C@H](CCC(N)=O)NC(=O)[C@H](N)Cc1ccccc1)C(=O)N[C@H](C(=O)NCC(=O)N[C@@H](Cc1c[nH]cn1)C(=O)N[C@@H](CC(C)C)C(N)=O)C(C)C [SEQ ID: 9, D-Phe-Gln-Trp-Deg-Val-Gly-His-Leu-NH2] (H-[dF]QW[Deg]VGHL-NH2; N-terminus assumed)", "unitDescriptor": "%", "Percentage cytotoxicity": 22.4}
{"compound": "CCCC(=O)N[C@H](Cc1ccccc1)C(=O)N[C@@H](CCC(N)=O)C(=O)N[C@@H](Cc1c[nH]c2ccccc12)C(=O)N[C@@H](C)C(=O)N[C@H](C(=O)NC(C)(C)C(=O)N[C@@H](Cc1c[nH]cn1)C(=O)N[C@@H](CC(C)C)C(N)=O)C(C)C [SEQ ID: 11] (Butyryl-[dF]QWAV[Aib]HL-NH2)", "unitDescriptor": "%", "Percentage cytotoxicity": 19.7}
{"compound": "CCCCCCCC(=O)N[C@H](Cc1ccccc1)C(=O)N[C@@H](CCC(N)=O)C(=O)N[C@@H](Cc1c[nH]c2ccccc12)C(=O)N[C@@H](C)C(=O)N[C@H](C(=O)NC(C)(C)C(=O)N[C@@H](Cc1c[nH]cn1)C(=O)N[C@@H](CC(C)C)C(N)=O)C(C)C [SEQ ID: 12] (Octanoyl-[dF]QWAV[Aib]HL-NH2)", "unitDescriptor": "%", "Percentage cytotoxicity": 19.5}

---

- System: SW620 (colon)
- experimentSummary: MTT cytotoxicity assay, 48 hours (Example 14)
- Assay type: cell-based, human
- details: SW620, 100 nM
Non-standard residues stand in square brackets, D forms with d. Residues, ends and D or L forms follow the SMILES beside them. *: point of attachment. Octanoyl = CCCCCCCC(=O)*; Ac5c = NC1(C(=O)O)CCCC1; Deg = CCC(N)(CC)C(=O)O; Aib = CC(C)(N)C(=O)O; Butyryl = CCCC(=O)*
// Percentage cytotoxicity lookup, one value per entry
assayMetric: Percentage cytotoxicity (%)

{"compound": "CC(C)C[C@H](NC(=O)[C@H](Cc1c[nH]cn1)NC(=O)C1(NC(=O)[C@@H](NC(=O)[C@H](C)NC(=O)[C@H](Cc2c[nH]c3ccccc23)NC(=O)[C@H](CCC(N)=O)NC(=O)[C@H](N)Cc2ccccc2)C(C)C)CCCC1)C(N)=O [SEQ ID: 10, D-Phe-Gln-Trp-Ala-Val-Ac5c-His-Leu-NH2] (H-[dF]QWAV[Ac5c]HL-NH2; N-terminus assumed)", "assayValue": 19.4}
{"compound": "CCCCCCCC(=O)N[C@H](Cc1ccccc1)C(=O)N[C@@H](CCC(N)=O)C(=O)N[C@@H](Cc1c[nH]c2ccccc12)C(=O)N[C@@H](C)C(=O)N[C@H](C(=O)NC(C)(C)C(=O)N[C@@H](Cc1c[nH]cn1)C(=O)N[C@@H](CC(C)C)C(N)=O)C(C)C [SEQ ID: 12] (Octanoyl-[dF]QWAV[Aib]HL-NH2)", "assayValue": 25.3}
{"compound": "CCCC(=O)N[C@H](Cc1ccccc1)C(=O)N[C@@H](CCC(N)=O)C(=O)N[C@@H](Cc1c[nH]c2ccccc12)C(=O)N[C@@H](C)C(=O)N[C@H](C(=O)NC(C)(C)C(=O)N[C@@H](Cc1c[nH]cn1)C(=O)N[C@@H](CC(C)C)C(N)=O)C(C)C [SEQ ID: 11] (Butyryl-[dF]QWAV[Aib]HL-NH2)", "assayValue": 21.0}
{"compound": "CCC(CC)(NC(=O)[C@H](Cc1c[nH]c2ccccc12)NC(=O)[C@H](CCC(N)=O)NC(=O)[C@H](N)Cc1ccccc1)C(=O)N[C@H](C(=O)NCC(=O)N[C@@H](Cc1c[nH]cn1)C(=O)N[C@@H](CC(C)C)C(N)=O)C(C)C [SEQ ID: 9, D-Phe-Gln-Trp-Deg-Val-Gly-His-Leu-NH2] (H-[dF]QW[Deg]VGHL-NH2; N-terminus assumed)", "assayValue": 25.8}

---

- System: PA-1 (ovary)
- experimentSummary: MTT cytotoxicity assay, 72 hours (Example 13)
- Type: cell-based, human
- details: PA-1, 100 nM
Non-standard residues stand in square brackets, D forms with d. Residues, ends and D or L forms follow the SMILES beside them. Aib = CC(C)(N)C(=O)O

{"molecule": "CC[C@H](C)[C@H](NC(=O)[C@H](Cc1c[nH]cn1)NC(=O)CNC(=O)[C@@H](NC(=O)C(C)(C)NC(=O)[C@H](Cc1c[nH]c2ccccc12)NC(=O)[C@H](CCC(N)=O)NC(=O)[C@H](N)Cc1ccccc1)C(C)C)C(N)=O [SEQ ID: 6, D-Phe-Gln-Trp-Aib-Val-Gly-His-Ile-NH2] (H-[dF]QW[Aib]VGHI-NH2; N-terminus assumed)", "unitDescriptor": "%", "Percent Cytotoxicity": 9.2}

---

- Test system: KB (oral squamous)
- experimentSummary: MTT cytotoxicity assay, 48 hours (Example 14)
- Format: cell-based, human
- details: 100 pM
Non-standard residues stand in square brackets, D forms with d. Residues, ends and D or L forms follow the SMILES beside them. *: point of attachment. Octanoyl = CCCCCCCC(=O)*; Ac5c = NC1(C(=O)O)CCCC1; Deg = CCC(N)(CC)C(=O)O; Aib = CC(C)(N)C(=O)O; Butyryl = CCCC(=O)*
// Percentage cytotoxicity lookup, one value per entry
assayMetric: Percentage cytotoxicity (%)

{"molecule": "CCCCCCCC(=O)N[C@H](Cc1ccccc1)C(=O)N[C@@H](CCC(N)=O)C(=O)N[C@@H](Cc1c[nH]c2ccccc12)C(=O)N[C@@H](C)C(=O)N[C@H](C(=O)NC(C)(C)C(=O)N[C@@H](Cc1c[nH]cn1)C(=O)N[C@@H](CC(C)C)C(N)=O)C(C)C [SEQ ID: 12] (Octanoyl-[dF]QWAV[Aib]HL-NH2)", "assayValue": 19.4}
{"molecule": "CC(C)C[C@H](NC(=O)[C@H](Cc1c[nH]cn1)NC(=O)C1(NC(=O)[C@@H](NC(=O)[C@H](C)NC(=O)[C@H](Cc2c[nH]c3ccccc23)NC(=O)[C@H](CCC(N)=O)NC(=O)[C@H](N)Cc2ccccc2)C(C)C)CCCC1)C(N)=O [SEQ ID: 10, D-Phe-Gln-Trp-Ala-Val-Ac5c-His-Leu-NH2] (H-[dF]QWAV[Ac5c]HL-NH2; N-terminus assumed)", "assayValue": 25.0}
{"molecule": "CCCC(=O)N[C@H](Cc1ccccc1)C(=O)N[C@@H](CCC(N)=O)C(=O)N[C@@H](Cc1c[nH]c2ccccc12)C(=O)N[C@@H](C)C(=O)N[C@H](C(=O)NC(C)(C)C(=O)N[C@@H](Cc1c[nH]cn1)C(=O)N[C@@H](CC(C)C)C(N)=O)C(C)C [SEQ ID: 11] (Butyryl-[dF]QWAV[Aib]HL-NH2)", "assayValue": 26.7}
{"molecule": "CCC(CC)(NC(=O)[C@H](Cc1c[nH]c2ccccc12)NC(=O)[C@H](CCC(N)=O)NC(=O)[C@H](N)Cc1ccccc1)C(=O)N[C@H](C(=O)NCC(=O)N[C@@H](Cc1c[nH]cn1)C(=O)N[C@@H](CC(C)C)C(N)=O)C(C)C [SEQ ID: 9, D-Phe-Gln-Trp-Deg-Val-Gly-His-Leu-NH2] (H-[dF]QW[Deg]VGHL-NH2; N-terminus assumed)", "assayValue": 26.9}
